- assay_explanation: Microsomal stability, human liver microsomes (predicted hepatic clearance)
- conditions: predicted from in vitro microsomal stability data
measurement_type: Predicted Hepatic Clearance (Pred. Cl.) (mL/min/kg)

>>> recorded_number("COCCn1c(Cc2cc(F)c(-c3cccc(OCc4cnc(C(F)(F)F)s4)n3)cc2F)nc2ccc(C(=O)O)cc21 [Example 862]")
4.33
>>> recorded_number("COC[C@H]1C[C@@H](n2c(Cc3cc(F)c(-c4cccc(OCc5ccc(C#N)cc5F)n4)cc3F)nc3ccc(C(=O)O)cc32)C1 [Example 734]")
8
>>> recorded_number("CC1(Cn2c(Cc3ccc(-c4cccc(OCc5ccc(C#N)cc5F)n4)cc3F)nc3ccc(C(=O)O)nc32)CC1 [Example 18]")
2.5
>>> recorded_number("COCCn1c(Cc2ccc(-c3cccc(OCc4cccc5cc[nH]c45)n3)cc2F)nc2ccc(C(=O)O)cc21 [Example 479]")
9.33

----------
The entries below are paired with their reported log10 of EC50.
- tested_on: GLP-1R (Homo sapiens, UniProt P43220)
- Sequence (P43220 24-463): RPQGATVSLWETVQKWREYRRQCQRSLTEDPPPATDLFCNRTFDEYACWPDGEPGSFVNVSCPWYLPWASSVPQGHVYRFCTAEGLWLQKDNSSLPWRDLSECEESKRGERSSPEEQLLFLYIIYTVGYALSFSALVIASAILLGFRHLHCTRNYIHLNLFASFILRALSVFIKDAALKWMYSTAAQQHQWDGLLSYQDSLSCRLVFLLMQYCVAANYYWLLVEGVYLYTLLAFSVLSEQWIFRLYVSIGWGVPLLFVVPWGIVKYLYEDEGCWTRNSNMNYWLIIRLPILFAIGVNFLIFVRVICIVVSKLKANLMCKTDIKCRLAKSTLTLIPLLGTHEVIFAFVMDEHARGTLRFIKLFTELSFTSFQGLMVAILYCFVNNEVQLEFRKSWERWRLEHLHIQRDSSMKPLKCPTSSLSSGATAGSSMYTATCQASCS
- assay_explanation: GLP-1R activation: cAMP increase in CHO cells stably expressing GLP-1R
- Format: cell-based
- conditions: cAMP increase, CHO cells stably expressing GLP-1R, 10 point dose response, 30 minutes incubation; read-out: EC50
measurement_type: log10 of EC50 (log10 of the value in nM)

>>> recorded_number("N#Cc1ccc(COc2cccc(-c3ccc(Cc4nc5ccc(C(=O)O)cc5n4CC4(n5ccnn5)CC4)cc3F)n2)c(F)c1 [Example 457]")
0.15
>>> recorded_number("N#Cc1ccc(COc2nccc(-c3ccc(Cc4nc5c(F)cc(C(=O)O)cc5n4C[C@@H]4CCO4)c(F)c3)n2)c(F)c1 [Example 406]")
-0.74
>>> recorded_number("NC(=O)c1cc(F)c(COc2cccc(-c3cc(F)c(Cc4nc5ccc(C(=O)O)cc5n4C[C@@H]4CCO4)cc3F)n2)cn1 [Example 854]")
-0.26
>>> recorded_number("COCCn1c(C2CCc3cc(-c4cccc(OCc5ccc(C#N)cc5F)n4)ccc32)nc2ccc(C(=O)O)cc21 (single isomer, unassigned) [Example 46]")
1.80
>>> recorded_number("COCCn1c(Cc2ccc(-c3cccc(OCn4ccc(C#N)cc4=O)n3)cc2F)nc2ccc(C(=O)O)cc21 [Example 513]")
1.74
>>> recorded_number("COCCn1c(Cc2ccc(-c3cccc(OCc4ccc(Cl)cn4)n3)cc2F)nc2ccc(C(=O)O)cc21 [Example 693]")
1.20

----------
- tested_on: GLP-1R (Homo sapiens)
- assay_explanation: GLP-1R activation: cAMP increase in CHO cells stably expressing GLP-1R
- Format: cell-based
- conditions: cAMP increase, CHO cells stably expressing GLP-1R, 10 point dose response, 30 minutes incubation; read-out: EC50
measurement_type: EC50 (nM)

>>> recorded_number("COCCCn1c(Cc2ccc(-c3cccc(OCc4ccc(C#N)cc4F)n3)cc2F)nc2ccc(C(=O)O)cc21")
26.4
>>> recorded_number("N#Cc1ccc(COc2cccc(-c3cc(F)c(Cc4nc5ccc(C(=O)O)cc5n4CC45COC(C4)C5)cc3F)n2)c(F)c1")
1.68
>>> recorded_number("COc1cc(Cl)ncc1COc1cccc(-c2cc(F)c(Cc3nc4ccc(C(=O)O)cc4n3C[C@@H]3CCO3)cc2F)n1")
0.15
>>> recorded_number("CC(C)(Cn1c(Cc2cc(F)c(-c3cccc(OCc4ccc(C#N)cc4F)n3)cc2F)nc2ccc(C(=O)O)cc21)OC(F)F")
1.31
>>> recorded_number("COC[C@H](C)n1c(Cc2cc(F)c(-c3cccc(OCc4ccc(C#N)cc4F)n3)cc2F)nc2ccc(C(=O)O)cc21")
2.62
>>> recorded_number("N#Cc1ccc(COc2ncc(F)c(-c3cc(F)c(Cc4nc5ccc(C(=O)O)cc5n4C[C@@H]4CCO4)cc3F)n2)c(F)c1")
0.51
>>> recorded_number("N#CCC1(Cn2c(Cc3ccc(-c4cccc(OCc5ccc(C#N)cc5F)n4)cc3F)nc3ccc(C(=O)O)cc32)CC1")
0.55
>>> recorded_number("N#Cc1ccc(COc2cccc(-c3cc(F)c(Cc4nc5ccc(C(=O)O)cc5n4C[C@H]4COCCO4)cc3F)n2)c(F)c1")
65.9
>>> recorded_number("N#Cc1ccc(COc2nccc(-c3ccc(Cc4nc5ccc(C(=O)O)cc5n4C[C@@H]4CCO4)cc3F)n2)c(F)c1")
0.89
>>> recorded_number("CC(C)(C#N)Cn1c(Cc2ccc(-c3cccc(OCc4ccc(C#N)cc4F)n3)cc2F)nc2ccc(C(=O)O)cc21")
3.14
